pIC50: −log10 of the molar value.
Reported values: pIC50 for human renal renin (Homo sapiens), one per item.
measured_property: pIC50

1. CCC[C@H]1CO[C@@H]1[C@H](O)[C@H](CC1CCCCC1)NC(=O)C(Cc1cnc[nH]1)NC(=O)C(Cc1ccccc1)NC(=O)OC(C)(C)C (stereo partly shown) ... 9.42
2. CC[C@H]1CO[C@@H]1[C@H](O)[C@H](CC1CCCCC1)NC(=O)C(Cc1cscn1)NC(=O)[C@H](Cc1ccccc1)CS(=O)(=O)N1CCN(C)CC1 (stereo partly shown) ... 9.72
3. CC(C)C[C@H]1CO[C@@H]1[C@H](O)[C@H](CC1CCCCC1)NC(=O)[C@H](Cc1cnc[nH]1)NC(=O)[C@H](Cc1ccccc1)NC(=O)OC(C)(C)C ... 8.96
4. CC(C)(C)OC(=O)N[C@@H](Cc1ccccc1)C(=O)N[C@@H](Cc1cnc[nH]1)C(=O)N[C@@H](CC1CCCCC1)[C@@H](O)[C@H]1OCC1(C)C ... 9.00
5. CC[C@H]1CO[C@@H]1[C@H](O)[C@H](CC1CCCCC1)NC(=O)C(Cc1cnc[nH]1)NC(=O)C(Cc1ccccc1)NC(=O)OC(C)(C)C (stereo partly shown) ... 9.33
6. CC[C@H]1CO[C@@H]1[C@H](O)[C@H](CC1CCCCC1)NC(=O)[C@H](CC(C)C)NC(=O)C(Cc1ccccc1)Cc1ccccc1 ... 8.92
7. CC(C)[C@H]1CO[C@@H]1[C@H](O)[C@H](CC1CCCCC1)NC(=O)[C@H](Cc1cnc[nH]1)NC(=O)[C@H](Cc1ccccc1)NC(=O)OC(C)(C)C ... 9.21
8. CCCC[C@H](NC(=O)[C@H](Cc1ccccc1)Cn1ccnc1)C(=O)N[C@@H](CC1CCCCC1)[C@@H](O)[C@H]1OC[C@@H]1CC ... 9.34
9. CC[C@H]1CO[C@@H]1[C@H](O)[C@H](CC1CCCCC1)NC(=O)C(C)NC(=O)[C@H](Cc1ccccc1)Cn1ccnc1 (stereo partly shown) ... 8.47
10. CC[C@H]1CO[C@@H]1[C@H](O)[C@H](CC(C)C)NC(=O)C(Cc1cscn1)NC(=O)[C@H](Cc1ccccc1)Cn1ccnc1 (stereo partly shown) ... 8.43
11. CCCCC(NC(=O)CCc1ccccc1)C(=O)N[C@@H](CC1CCCCC1)[C@@H](O)[C@H]1OC[C@@H]1CC (stereo partly shown) ... 8.48
12. CC[C@H]1CO[C@@H]1[C@H](O)[C@H](CC1CCCCC1)NC(=O)[C@H](CC(C)C)NC(=O)[C@H](Cc1ccccc1)Cn1ccnc1 ... 9.19
13. CC([C@H]1CO[C@@H]1[C@H](O)[C@H](CC1CCCCC1)NC(=O)[C@H](Cc1cnc[nH]1)NC(=O)[C@H](Cc1ccccc1)NC(=O)OC(C)(C)C)C(F)(F)F (stereo partly shown) ... 8.92
14. CCCC[C@H](NC(=O)C(Cc1ccccc1)Cc1ccccc1)C(=O)N[C@@H](CC1CCCCC1)[C@@H](O)[C@H]1OC[C@@H]1CC ... 9.17
15. CC[C@H]1CO[C@@H]1[C@H](O)[C@H](CC1CCCCC1)NC(=O)C(Cc1cscn1)NC(=O)[C@H](Cc1ccccc1)Cn1ccnc1 (stereo partly shown) ... 9.55
16. C[C@H]1CO[C@@H]1[C@H](O)[C@H](CC1CCCCC1)NC(=O)C(Cc1cnc[nH]1)NC(=O)C(Cc1ccccc1)NC(=O)OC(C)(C)C (stereo partly shown) ... 9.29
